Ref: ChEMBL document CHEMBL1212771

- Tested on: Pseudomonas aeruginosa
- protocol_details: Antimicrobial activity against Pseudomonas aeruginosa 531 expressing beta-lactamase BEL-2 by solid agar dilution method
- Type: functional
Below, each entry is listed with its recorded log10(MIC).
Hello, just confirming the data are log10 of MIC with units of µg/mL.

Please review the entries below; each comes with its answer.
{"compound": "CC(C)(O/N=C(\\C(=O)N[C@@H]1C(=O)N2C(C(=O)[O-])=C(C[n+]3ccccc3)CS[C@H]12)c1csc(N)n1)C(=O)O", "log10(MIC)": 2.41}
{"compound": "C[C@@H](O)[C@H]1C(=O)N2C(C(=O)O)=C(SCCNC=N)C[C@H]12 [IMIPENEM ANHYDROUS]", "log10(MIC)": 0.00}
{"compound": "CO/N=C(\\C(=O)N[C@@H]1C(=O)N2C(C(=O)[O-])=C(C[N+]3(C)CCCC3)CS[C@H]12)c1csc(N)n1", "log10(MIC)": 1.20}
{"compound": "CO/N=C(\\C(=O)N[C@@H]1C(=O)N2C(C(=O)[O-])=C(C[n+]3cccc4c3CCC4)CS[C@H]12)c1csc(N)n1", "log10(MIC)": 1.81}

Query block: // lookup log10(MIC) for C[C@H]1[C@H](NC(=O)/C(=N\OC(C)(C)C(=O)O)c2csc(N)n2)C(=O)N1S(=O)(=O)O
Result block: 1.81

Query block: What measured log10(MIC) goes with CO[C@@]1(NC(=O)Cc2cccs2)C(=O)N2C(C(=O)O)=C(COC(N)=O)CS[C@@H]21 ?
Result block: 2.71

Query block: I would be grateful if you could share the reported log10(MIC) for CCN1CCN(C(=O)N[C@@H](C(=O)N[C@@H]2C(=O)N3[C@@H]2SC(C)(C)[C@@H]3C(=O)O)c2ccccc2)C(=O)C1=O .
Result block: 1.20

Query block: Given the compound CO/N=C(\C(=O)N[C@@H]1C(=O)N2C(C(=O)O)=C(COC(C)=O)CS[C@H]12)c1csc(N)n1 , what is its reported log10(MIC)?
Result block: 2.41

----------
- Test system: Escherichia coli
- protocol_details: Antimicrobial activity against Escherichia coli TOP10 by solid agar dilution method
- Assay type: functional
Friendly reminder: MIC below 0.1 µg/mL is YES, at or above is NO.

{"mol_smiles": "CO/N=C(\\C(=O)N[C@@H]1C(=O)N2C(C(=O)O)=C(COC(C)=O)CS[C@H]12)c1csc(N)n1", "assigned_label": "NO"}
{"mol_smiles": "CO[C@@]1(NC(=O)Cc2cccs2)C(=O)N2C(C(=O)O)=C(COC(N)=O)CS[C@@H]21", "assigned_label": "NO"}

Query block: Regarding CC1(C)S[C@@H]2[C@H](NC(=O)[C@H](C(=O)O)c3ccsc3)C(=O)N2[C@H]1C(=O)O , kindly confirm whether its MIC is beneath 0.1 µg/mL.
Result block: NO

Query block: Is it true that MIC reported for CC(C)(O/N=C(\C(=O)N[C@@H]1C(=O)N2C(C(=O)[O-])=C(C[n+]3ccccc3)CS[C@H]12)c1csc(N)n1)C(=O)O is less than 0.1 µg/mL?
Result block: YES

Query block: I'd appreciate it if you could check whether CCN1CCN(C(=O)N[C@@H](C(=O)N[C@@H]2C(=O)N3[C@@H]2SC(C)(C)[C@@H]3C(=O)O)c2ccccc2)C(=O)C1=O has MIC smaller than 0.1 µg/mL.
Result block: NO

----------
- System: Escherichia coli
- protocol_details: Antimicrobial activity against Escherichia coli TOP10 by solid agar dilution method
- Type: functional
measurement_label: MIC

Solved entries (count: 3):
{"mol_smiles": "CC(=O)OCC1=C(C(=O)O)N2C(=O)[C@@H](NC(=O)Cc3cccs3)[C@H]2SC1", "tested_target": "Escherichia coli", "test_result": "2 µg/mL"}
{"mol_smiles": "CO/N=C(\\C(=O)N[C@@H]1C(=O)N2C(C(=O)[O-])=C(C[n+]3cccc4c3CCC4)CS[C@H]12)c1csc(N)n1", "tested_target": "Escherichia coli", "test_result": "0.06 µg/mL"}
{"mol_smiles": "CC1(C)S[C@@H]2[C@H](NC(=O)[C@H](N)c3ccc(O)cc3)C(=O)N2[C@H]1C(=O)O", "tested_target": "Escherichia coli", "test_result": "4 µg/mL"}

Now let's try a different one.
Query block: Item CO/N=C(\C(=O)N[C@@H]1C(=O)N2C(C(=O)O)=C(COC(N)=O)CS[C@H]12)c1ccco1 has what recorded MIC?
Result block: 2 µg/mL

----------
- System: Pseudomonas aeruginosa
- protocol_details: Antimicrobial activity against Pseudomonas aeruginosa 51170 expressing beta-lactamase BEL-1 by solid agar dilution method
- Type: functional
Consider the following molecules and their measured MIC readings.
Just the number in µg/mL, nothing appended.

# count of solved cases: 6
{"mol_smiles": "CC(C)(O/N=C(\\C(=O)N[C@@H]1C(=O)N2C(C(=O)[O-])=C(C[n+]3ccccc3)CS[C@H]12)c1csc(N)n1)C(=O)O", "measurement_label": "MIC", "test_result": 32}
{"mol_smiles": "CO/N=C(\\C(=O)N[C@@H]1C(=O)N2C(C(=O)[O-])=C(C[N+]3(C)CCCC3)CS[C@H]12)c1csc(N)n1", "measurement_label": "MIC", "test_result": 4}
{"mol_smiles": "C[C@H]1[C@H](NC(=O)/C(=N\\OC(C)(C)C(=O)O)c2csc(N)n2)C(=O)N1S(=O)(=O)O", "measurement_label": "MIC", "test_result": 16}
{"mol_smiles": "CO[C@@]1(NC(=O)Cc2cccs2)C(=O)N2C(C(=O)O)=C(COC(N)=O)CS[C@@H]21", "measurement_label": "MIC", "test_result": 512}
{"mol_smiles": "CCN1CCN(C(=O)N[C@@H](C(=O)N[C@@H]2C(=O)N3[C@@H]2SC(C)(C)[C@@H]3C(=O)O)c2ccccc2)C(=O)C1=O", "measurement_label": "MIC", "test_result": 16}
{"mol_smiles": "CO/N=C(\\C(=O)N[C@@H]1C(=O)N2C(C(=O)[O-])=C(C[n+]3cccc4c3CCC4)CS[C@H]12)c1csc(N)n1", "measurement_label": "MIC", "test_result": 16}

Let's switch to this molecule now.
Query block: Give Pseudomonas aeruginosa MIC for CO/N=C(\C(=O)N[C@@H]1C(=O)N2C(C(=O)O)=C(COC(C)=O)CS[C@H]12)c1csc(N)n1
Result block: 32
